Target: Tyrosine-protein phosphatase non-receptor type 2 (Homo sapiens, UniProt P17706)
Sequence (P17706 whole entry): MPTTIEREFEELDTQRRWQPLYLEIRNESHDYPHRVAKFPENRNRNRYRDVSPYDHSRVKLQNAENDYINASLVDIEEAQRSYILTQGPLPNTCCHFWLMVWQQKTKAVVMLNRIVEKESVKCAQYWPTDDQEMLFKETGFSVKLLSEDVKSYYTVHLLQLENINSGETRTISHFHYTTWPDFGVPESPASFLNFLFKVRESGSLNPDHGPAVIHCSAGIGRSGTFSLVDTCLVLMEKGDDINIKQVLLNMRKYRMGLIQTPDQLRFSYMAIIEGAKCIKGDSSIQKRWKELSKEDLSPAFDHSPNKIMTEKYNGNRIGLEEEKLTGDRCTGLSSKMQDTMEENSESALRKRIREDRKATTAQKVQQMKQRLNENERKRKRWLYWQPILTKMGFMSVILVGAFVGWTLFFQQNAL
Test protocol: Inhibition of human PTPN2 expressed in Escherichia coli Rosetta 2 (DE3) using pNPP as substrate after 45 mins by spectrophotometric method
Please go through the items and note down their pIC50.
Note on pIC50: it is the negative log10 of concentration, concentration in mol/L.

Q) Give its pIC50 value. Item: Cc1cccc(S(=O)(=O)Nc2ccc(-c3nc4cc(NS(=O)(=O)c5cccc(C)c5)ccc4o3)cc2)c1
A) 4.77

Q) Give its pIC50 value. Item: O=S(=O)(Nc1ccc(-c2nc3cc(NS(=O)(=O)c4cccc5nonc45)ccc3o2)cc1)c1cccc2nonc12
A) 4.24

Q) Give its pIC50 value. Item: O=S(=O)(Nc1ccc(-c2nc3cc(NS(=O)(=O)c4ccc5ncsc5c4)ccc3o2)cc1)c1ccc2ncsc2c1
A) 4.92

Q) Give its pIC50 value. Item: O=c1ccc2cc(S(=O)(=O)Nc3ccc(-c4nc5cc(NS(=O)(=O)c6ccc(Cl)s6)ccc5o4)cc3)ccc2o1
A) 4.77

Q) Give its pIC50 value. Item: COc1ccc(Cl)cc1S(=O)(=O)Nc1ccc2oc(-c3ccc(NS(=O)(=O)c4ccc(Cl)s4)cc3)nc2c1
A) 5.04

Q) Give its pIC50 value. Item: O=S(=O)(Nc1ccc(-c2nc3ccccc3o2)cc1)c1ccccc1Cl
A) 4.19

Q) Give its pIC50 value. Item: O=S(=O)(Nc1ccc(-c2nc3ccccc3o2)cc1)c1cccc(Cl)c1
A) 4.17

Q) Give its pIC50 value. Item: COc1ccccc1S(=O)(=O)Nc1ccc2oc(-c3ccccc3)nc2c1
A) 4.47

Q) Give its pIC50 value. Item: CS(=O)(=O)Nc1ccc(-c2nc3cc(NS(=O)(=O)c4ccc(Cl)s4)ccc3o2)cc1
A) 4.02

Q) Give its pIC50 value. Item: C=Cc1ccc(S(=O)(=O)Nc2ccc(-c3nc4cc(NS(=O)(=O)c5ccc(Cl)s5)ccc4o3)cc2)cc1
A) 4.85

Q) Give its pIC50 value. Item: O=S(=O)(Nc1ccc2oc(-c3ccc(NS(=O)(=O)c4ccc(Cl)s4)cc3)nc2c1)c1ccc2ccccc2c1
A) 5.13

Q) Give its pIC50 value. Item: COC(=O)c1ccccc1S(=O)(=O)Nc1ccc(-c2nc3cc(NS(=O)(=O)c4ccccc4C(=O)OC)ccc3o2)cc1
A) 4.85

Q) Give its pIC50 value. Item: O=S(=O)(Nc1ccc(-c2nc3ccccc3o2)cc1)c1ccccc1C(F)(F)F
A) 4.21

Q) Give its pIC50 value. Item: O=S(=O)(Nc1ccc(-c2nc3cc(NS(=O)(=O)c4cccc(F)c4)ccc3o2)cc1)c1cccc(F)c1
A) 4.49
